Kb: recorded values
- study_target: GPR17 (Homo sapiens)
- Sequence (Q13304 whole entry): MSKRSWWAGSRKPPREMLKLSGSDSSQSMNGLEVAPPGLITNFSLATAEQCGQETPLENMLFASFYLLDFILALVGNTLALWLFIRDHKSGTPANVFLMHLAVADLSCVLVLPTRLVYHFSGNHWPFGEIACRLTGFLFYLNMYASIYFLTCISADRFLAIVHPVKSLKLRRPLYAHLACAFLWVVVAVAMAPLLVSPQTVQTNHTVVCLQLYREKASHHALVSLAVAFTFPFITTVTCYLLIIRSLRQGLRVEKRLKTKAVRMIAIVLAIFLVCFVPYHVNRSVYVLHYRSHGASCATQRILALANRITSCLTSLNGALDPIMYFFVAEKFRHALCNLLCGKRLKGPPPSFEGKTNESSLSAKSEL
- test_protocol: cAMP accumulation functional assay (HTRF, Schild analysis)
- Assay type: cell-based
- Parameters: host or cells: Flp-In T-REx CHO
- condition_info: CHO hGPR17 cells, Schild analysis vs MDL29,951, 5 μM forskolin, read-out: cAMP assay pA2 (converted)
measured_metric: Kb

# compound, observed_measurement
measured = [
    ("CC(C)c1ccc2c(S(=O)(=O)Nc3ccc(C#N)cc3F)c[nH]c2c1", "< 3.16 nM"),
    ("O=S(=O)(Nc1cc(F)c(F)cc1F)c1c[nH]c2nc(Cl)ccc12", "> 31.6 nM"),
    ("COc1cc(C#N)c(F)cc1NS(=O)(=O)c1c[nH]c2cc(Cl)ccc12", "< 3.16 nM"),
    ("COc1nc(NS(=O)(=O)c2coc3cc(Cl)ccc23)c(F)cc1Cl", "3.16 to 31.6 nM"),
    ("O=S(=O)(Nc1ccc(C(F)(F)F)cc1F)c1c[nH]c2nc(Cl)ccc12", "3.16 to 31.6 nM"),
    ("CC1OC(=O)c2cc(NS(=O)(=O)c3c[nH]c4cc(Cl)ccc34)c(F)cc21 (centres unmarked)", "< 3.16 nM"),
    ("O=C1OCc2cc(F)c(NS(=O)(=O)c3c[nH]c4cc(Cl)ccc34)cc21", "3.16 to 31.6 nM"),
    ("O=S(=O)(Nc1cc2nsnc2cc1F)c1c[nH]c2c1ccc1ccccc12", "3.16 to 31.6 nM"),
    ("COCCOc1cc(F)c(NS(=O)(=O)c2c[nH]c3cc(Cl)ccc23)nc1F", "3.16 to 31.6 nM"),
    ("O=S(=O)(Nc1cc(F)c(Br)cc1F)c1c[nH]c2c1ccc1cccnc12", "< 3.16 nM"),
    ("N#Cc1c(Cl)ccc2c(S(=O)(=O)Nc3cc(F)c(Cl)cc3F)c[nH]c12", "< 3.16 nM"),
    ("Cc1cc(F)c(NS(=O)(=O)c2c[nH]c3c(F)c(Cl)ccc23)nc1F", "3.16 to 31.6 nM"),
    ("COc1nc(NS(=O)(=O)c2c[nH]c3cc(N)ccc23)c(F)cc1CC#N", "3.16 to 31.6 nM"),
    ("O=S(=O)(Nc1cc(Cl)ccc1F)c1c[nH]c2cc(Cl)ccc12", "3.16 to 31.6 nM"),
    ("C#Cc1ccc(NS(=O)(=O)c2c[nH]c3nc(OC)ccc23)c(F)c1", "3.16 to 31.6 nM"),
    ("O=S(=O)(Nc1cccc2c1OCO2)c1c[nH]c2nc(Cl)ccc12", "> 31.6 nM"),
    ("O=S(=O)(Nc1ccc(F)c2nsnc12)c1c[nH]c2cc(Cl)ccc12", "3.16 to 31.6 nM"),
]

====

Kb: recorded values
- study_target: UniProtKB Q13304
- test_protocol: cAMP accumulation functional assay (HTRF, Schild analysis)
- Format: cell-based
- Set-up: host or cells: Flp-In T-REx CHO
- condition_info: CHO hGPR17 cells, Schild analysis vs MDL29,951, 5 μM forskolin, read-out: cAMP assay pA2 (converted)

# compound, study_target, Kb
measured = [
    ("COc1cc(C#N)ccc1NS(=O)(=O)c1c[nH]c2cc(Cl)ccc12 [Compound I-126]", "UniProtKB Q13304", "3.16 to 31.6 nM"),
    ("COc1cc(Cl)c(F)cc1NS(=O)(=O)c1c[nH]c2c1ccc1ccccc12 [Compound I-175]", "UniProtKB Q13304", "3.16 to 31.6 nM"),
    ("COc1c(Cl)ccc2c(S(=O)(=O)Nc3cc(F)c(Cl)cc3F)c[nH]c12 [Compound I-244]", "UniProtKB Q13304", "< 3.16 nM"),
    ("O=C1OCc2ccc(NS(=O)(=O)c3c[nH]c4cc(Cl)ccc34)cc21 [Compound I-8]", "UniProtKB Q13304", "> 31.6 nM"),
    ("N#Cc1ccc(NS(=O)(=O)c2c[nH]c3cc(Cl)c(Br)cc23)c(F)c1 [Compound I-343]", "UniProtKB Q13304", "< 3.16 nM"),
    ("COc1cc(Br)c(F)nc1NS(=O)(=O)c1c[nH]c2cc(Cl)ccc12 [Compound I-349]", "UniProtKB Q13304", "< 3.16 nM"),
    ("CCO/C=C/c1cc(F)c(NS(=O)(=O)c2c[nH]c3cc(Cl)ccc23)nc1F [Compound I-332]", "UniProtKB Q13304", "< 3.16 nM"),
    ("N#Cc1ccc2c(S(=O)(=O)Nc3cc(F)c(OC(F)F)cc3F)c[nH]c2c1 [Compound I-282]", "UniProtKB Q13304", "3.16 to 31.6 nM"),
    ("N#Cc1cc(F)c(NS(=O)(=O)c2c[nH]c3cc(OCc4ccccc4)ccc23)cc1F [Compound I-153]", "UniProtKB Q13304", "3.16 to 31.6 nM"),
    ("N#Cc1ccc(NS(=O)(=O)c2c[nH]c3cc(-c4cccs4)ccc23)c(F)c1 [Compound I-235]", "UniProtKB Q13304", "< 3.16 nM"),
    ("N#Cc1cc(F)c(NS(=O)(=O)c2c[nH]c3cc(C(F)(F)F)ccc23)cc1F [Compound I-184]", "UniProtKB Q13304", "< 3.16 nM"),
    ("COc1ccc2c(S(=O)(=O)Nc3nc(OC)c(Cl)cc3F)c[nH]c2c1Cl [Compound I-356]", "UniProtKB Q13304", "3.16 to 31.6 nM"),
    ("O=S(=O)(Nc1ccc(C(F)(F)F)cc1F)c1c[nH]c2cc(Cl)ccc12 [Compound I-299]", "UniProtKB Q13304", "< 3.16 nM"),
    ("O=S(=O)(Nc1nc(F)c(Cl)cc1F)c1c[nH]c2c1ccc1ccccc12 [Compound I-304]", "UniProtKB Q13304", "< 3.16 nM"),
    ("O=S(=O)(Nc1cc(F)c(C(F)(F)F)cc1F)c1c[nH]c2cc(Cl)ccc12 [Compound I-269]", "UniProtKB Q13304", "< 3.16 nM"),
    ("O=C1OCc2cc(F)c(NS(=O)(=O)c3c[nH]c4nc(Cl)ccc34)cc21 [Compound I-284]", "UniProtKB Q13304", "> 31.6 nM"),
    ("O=S(=O)(Nc1cc(F)c(Cl)cc1F)c1c[nH]c2cc3c(cc12)OCO3 [Compound I-271]", "UniProtKB Q13304", "< 3.16 nM"),
]
